This section presents compounds with their documented GI50 values.
System: CAKI-1
Experiment: NCI tumour cell line growth inhibition, 48 h
Activity calls are given as the source filed them. Rule as the data show it: active = GI50 up to about 1.1 µM and inactive = higher.

- CN(C)CCN(c1ccccn1)c1ccccn1: > 100 µM (inactive)
- COc1ccc(C(=O)c2c(C(C(=O)c3ccc(OC)cc3)C(=O)c3ccc(OC)cc3)n(C(=O)c3ccc(OC)cc3)c3ccccc23)cc1: > 100 µM (inactive)
- CC(=O)OC(CCC1(C)OC1COc1ccc(CCNC(=O)C=C(C)C)cc1)C(C)(C)OC(C)=O (stereo not given): > 100 µM (inactive)
- c1ccc(COc2ccc(CC3SCCCS3)cc2)cc1: 62.7 µM (inactive)
- CC1(C)CCC(C)(C)c2cc(NC(=O)c3ccc(C(=O)O)cc3)ccc21 [TAMIBAROTENE]: 47.6 µM (inactive)

Input line: API: value(readout=GI50, system=CAKI-1) for record "C=CCN1C[C@H](C)N([C@H](c2ccc(C(=O)NC(CC)CC)cc2)c2cccc(OC)c2)C[C@H]1C"
Output line: 22.6 µM (inactive)

Input line: Another: "Cc1c(C(=O)/C=C/c2ccccc2O)c(=O)n(-c2ccccc2)n1C"
Output line: 21.8 µM (inactive)
